Ref: ChEMBL document CHEMBL3885861

species: Rattus norvegicus; assay: Open TG-GATES - Regimen: Daily Repeat; type: toxicity, organism-based, Sprague-Dawley; design: regimen Daily Repeat, gender Male, age 6 weeks; details: in vivo, po, 0 mg/kg, […], tissue Plasma, route gavage, dose level Control, time 7 day
Please provide measured TP for the entries that follow.
Number in g/dL, nothing else.

Which TP is reported for this compound? `O=C(O)COc1nn(Cc2ccccc2)c2ccccc12` 5.8

Give the measured TP of CC(C)Cc1ccc(C(C)C(=O)O)cc1 (stereo not drawn) . 5.5

TP lookup needed for `CC(=O)Nc1ccc2c(c1)Cc1ccccc1-2` , thanks. 5.7

Need TP of CC(N)=O [ACETAMIDE] , thanks. 5.7

Bench note: what TP did CC(CCc1ccccc1)NCC(O)c1ccc(O)c(C(N)=O)c1 (stereo not drawn) show? 5.8

Fill in: TP of CC(=O)N1CCN(c2ccc(OCC3COC(Cn4ccnc4)(c4ccc(Cl)cc4Cl)O3)cc2)CC1 (stereo not drawn) is ___ 5.8

For the compound shown here, `CCN(CC)N=O` , give the reported TP. 5.5

What value of TP has been recorded for this entry: `CC[C@@H](CO)NCCN[C@@H](CC)CO` 5.6

----------
Provide the recorded APTT for the entries that follow.
species on record: Rattus norvegicus; assay: Open TG-GATES - Regimen: Daily Repeat; format: toxicity, organism-based, Sprague-Dawley; parameters: regimen Daily Repeat, gender Male, age 6 weeks; conditions: in vivo, po, 0 mg/kg, […], tissue Blood, route gavage, dose level Control, time 14 day
Report only the number, with the unit s understood.

Can you share its APTT? I mean this compound: `O=C(O)COc1nn(Cc2ccccc2)c2ccccc12` 17.2

// query APTT value for entry `CC(=O)Nc1ccc2c(c1)Cc1ccccc1-2` 21

Requested read-out: APTT. Entry: CC(CCc1ccccc1)NCC(O)c1ccc(O)c(C(N)=O)c1 (stereo unspecified) 17.8

What does the record list as APTT for `CC[C@@H](CO)NCCN[C@@H](CC)CO` ? 21.6

Sample `CCN(CC)N=O` — what was its APTT? 21.7

Entry CC(=O)N1CCN(c2ccc(OCC3COC(Cn4ccnc4)(c4ccc(Cl)cc4Cl)O3)cc2)CC1 (stereo unspecified) has what APTT? 22.2

----------
species on record: Rattus norvegicus; experiment: Open TG-GATES - Regimen: Daily Repeat; format: toxicity, organism-based, Sprague-Dawley; parameters: regimen Daily Repeat, gender Male, age 6 weeks; conditions: in vivo, po, 0 mg/kg, […], tissue Blood, route gavage, dose level Control, time 7 day
Quantity: Ht (%)
Output spec: scalar in %, unitless text.

Which Ht value belongs to CC(N)=O [ACETAMIDE] ? 38.9

Could you tell me which Ht is on file for CC(CCc1ccccc1)NCC(O)c1ccc(O)c(C(N)=O)c1 (stereo not drawn) ? 38.7

Please report the recorded Ht for CC(=O)N1CCN(c2ccc(OCC3COC(Cn4ccnc4)(c4ccc(Cl)cc4Cl)O3)cc2)CC1 (stereo not drawn) . 40.1

Quick one: Ht for `CCN(CC)N=O` ? 38.7

I'd like to know its Ht. The compound in question is CC(C)Cc1ccc(C(C)C(=O)O)cc1 (stereo not drawn) 37.3

What value of Ht has been reported for the following compound? `O=C(O)COc1nn(Cc2ccccc2)c2ccccc12` 41.4

Query (compound): `CC[C@@H](CO)NCCN[C@@H](CC)CO` ; field requested: Ht 41.1

// query Ht value for entry `CC(=O)Nc1ccc2c(c1)Cc1ccccc1-2` 39.9

----------
organism: Rattus norvegicus; assay: Open TG-GATES - Regimen: Single; assay type: toxicity, organism-based, Sprague-Dawley; set-up: regimen Single, gender Male, age 6 weeks; details: in vivo, po, 0 mg/kg, 6 h, tissue Kidney, route gavage, dose level Control
Answer each item with its documented KIDNEY_L.
# value in g; strip the unit string

GET /values?readout=KIDNEY_L&item= CC(=O)Nc1ccc2c(c1)Cc1ccccc1-2 [2-ACETYLAMINOFLUORENE] 1

Please look up its KIDNEY_L: CC(CCc1ccccc1)NCC(O)c1ccc(O)c(C(N)=O)c1 (configuration not stated) [LABETALOL] 0.9

Quick one: KIDNEY_L of CCN(CC)N=O [N-NITROSODIETHYLAMINE] ? 1

Which KIDNEY_L is listed for O=C(O)COc1nn(Cc2ccccc2)c2ccccc12 [BENDAZAC] ? 1

Any idea what KIDNEY_L was measured for CC(C)Cc1ccc(C(C)C(=O)O)cc1 (configuration not stated) [IBUPROFEN] ? 0.9

Entry under review: CC(=O)N1CCN(c2ccc(OCC3COC(Cn4ccnc4)(c4ccc(Cl)cc4Cl)O3)cc2)CC1 (configuration not stated) [KETOCONAZOLE] . Reported KIDNEY_L? 1

Item under review: CC[C@@H](CO)NCCN[C@@H](CC)CO [ETHAMBUTOL] . Reported KIDNEY_L? 1

----------
species on record: Rattus norvegicus; assay: Open TG-GATES - Regimen: Daily Repeat; type: toxicity, organism-based, Sprague-Dawley; parameters: regimen Daily Repeat, gender Male, age 6 weeks; details: in vivo, po, 0 mg/kg, […], tissue Plasma, route gavage, dose level Control, time 14 day
Quantity: ALP (IU/L)
Expressed in IU/L, but write only the number.

Which value of ALP has been reported for CC(=O)N1CCN(c2ccc(OCC3COC(Cn4ccnc4)(c4ccc(Cl)cc4Cl)O3)cc2)CC1 (stereo not drawn) [KETOCONAZOLE] in the records? 1657

Fill blank: measured ALP of the molecule CC[C@@H](CO)NCCN[C@@H](CC)CO [ETHAMBUTOL] is ____. 1341.2

Fill blank: measured ALP of the molecule CCN(CC)N=O [N-NITROSODIETHYLAMINE] is ____. 688.8

Data request, read-out ALP, for CC(C)Cc1ccc(C(C)C(=O)O)cc1 (stereo not drawn) [IBUPROFEN] 1425.2

Report ALP for O=C(O)COc1nn(Cc2ccccc2)c2ccccc12 [BENDAZAC] please. 749.8

Consider the molecule shown here: CC(N)=O [ACETAMIDE] What is its recorded ALP? 1394.4

Suppose we examine the molecule CC(CCc1ccccc1)NCC(O)c1ccc(O)c(C(N)=O)c1 (stereo not drawn) [LABETALOL] ; what ALP value has been reported? 1377.6

Quick check: ALP of CC(=O)Nc1ccc2c(c1)Cc1ccccc1-2 [2-ACETYLAMINOFLUORENE] ? 880.2

----------
organism: Rattus norvegicus; experiment: Open TG-GATES - Regimen: Daily Repeat; assay type: toxicity, organism-based, Sprague-Dawley; design: regimen Daily Repeat, gender Male, age 6 weeks; conditions: in vivo, po, 0 mg/kg, 72 h, tissue Plasma, route gavage, dose level Control, time 3 day
Quantity: Cl (meq/L)
The reply should contain only the number, in meq/L.

Quick one: Cl for CCN(CC)N=O [N-NITROSODIETHYLAMINE] ? 102.2

I would be grateful if you could share the reported Cl for CC(=O)Nc1ccc2c(c1)Cc1ccccc1-2 [2-ACETYLAMINOFLUORENE] . 101.8

Please look up its Cl: CC(N)=O [ACETAMIDE] 105.6

Requested field: Cl. Item: CC[C@@H](CO)NCCN[C@@H](CC)CO [ETHAMBUTOL] 107

So what's the measured Cl for this one? CC(=O)N1CCN(c2ccc(OCC3COC(Cn4ccnc4)(c4ccc(Cl)cc4Cl)O3)cc2)CC1 (stereo unspecified) [KETOCONAZOLE] 106.2

Query (compound): O=C(O)COc1nn(Cc2ccccc2)c2ccccc12 [BENDAZAC] ; field requested: Cl 103.4

----------
species: Rattus norvegicus; experiment: Open TG-GATES - Regimen: Daily Repeat; assay type: toxicity, organism-based, Sprague-Dawley; design: regimen Daily Repeat, gender Male, age 6 weeks; conditions: in vivo, po, 0 mg/kg, […], tissue Plasma, route gavage, dose level Control, time 14 day
Quantity: CRE

So what does the record say about CRE for CC(CCc1ccccc1)NCC(O)c1ccc(O)c(C(N)=O)c1 (stereo not drawn) [LABETALOL] ? 0.2 mg/dL

What value of CRE has been recorded for this entry: O=C(O)COc1nn(Cc2ccccc2)c2ccccc12 [BENDAZAC] 0.5 mg/dL

Can you share its CRE? I mean this compound: CC(=O)N1CCN(c2ccc(OCC3COC(Cn4ccnc4)(c4ccc(Cl)cc4Cl)O3)cc2)CC1 (stereo not drawn) [KETOCONAZOLE] 0.2 mg/dL

Recorded CRE of CCN(CC)N=O [N-NITROSODIETHYLAMINE] , please. 0.5 mg/dL

Would you kindly share the measured CRE for CC(N)=O [ACETAMIDE] ? 0.2 mg/dL

// CRE lookup, key: CC(C)Cc1ccc(C(C)C(=O)O)cc1 (stereo not drawn) [IBUPROFEN] 0.2 mg/dL

Query: CRE; subject: CC(=O)Nc1ccc2c(c1)Cc1ccccc1-2 [2-ACETYLAMINOFLUORENE] 0.5 mg/dL

Need CRE of CC[C@@H](CO)NCCN[C@@H](CC)CO [ETHAMBUTOL] , thanks. 0.2 mg/dL
